System: T-47D spheroids with HUVEC/MSC, viability
EXPERIMENT: Anticancer human tumor T-47D cell line growth inhibition [PI3K];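 note: spheroids exposed to agents for seven days before reading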;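 for viability, T/C: percent of DMSO vehicle control luminescence so 100% = untreated growth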
EXPERIMENTAL PARAMETERS: second compound 1 µM; first compound 1 µM; stronger effect = lower value
REPORTED METRIC: viability, T/C (%)
Kindly provide the numeric value in % only, without the unit symbol.

[
  {
    "COMPOUND": "CC1(C)CCC(Nc2ncc(C(F)(F)F)c(-c3c[nH]c4c(P(C)(C)=O)c(C#N)ccc34)n2)CN1 (stereo not given) + Cc1nc(NC(=O)N2CCCC2C(N)=O)sc1-c1ccnc(C(C)(C)C(F)(F)F)c1",
    "MEASURED TARGET": "T-47D spheroids with HUVEC/MSC, viability",
    "REPORTED METRIC": "viability, T/C",
    "REPORTED VALUE": 44.2
  },
  {
    "COMPOUND": "Cn1ncc(Cl)c1-c1cc(C(=O)NC(CN)Cc2cccc(F)c2)sc1Cl (stereo not given) + CC(Nc1ncnc2nc[nH]c12)c1cc2cccc(Cl)c2c(=O)n1-c1ccccc1",
    "MEASURED TARGET": "T-47D spheroids with HUVEC/MSC, viability",
    "REPORTED METRIC": "viability, T/C",
    "REPORTED VALUE": 67.1
  },
  {
    "COMPOUND": "C=CC(=O)N1CCN(c2nc(=O)n(-c3c(C)ccnc3C(C)C)c3nc(-c4c(O)cccc4F)c(F)cc23)C(C)C1 (stereo not given) + CC(Nc1ccc2c(c1)OCCn1cc(N3C(=O)OCC3C(F)F)nc1-2)C(N)=O",
    "MEASURED TARGET": "T-47D spheroids with HUVEC/MSC, viability",
    "REPORTED METRIC": "viability, T/C",
    "REPORTED VALUE": 54.2
  }
]

Problem: Need viability, T/C of Cn1nccc1Nc1nccc(-c2ccn(C(CO)c3ccc(Cl)c(F)c3)c(=O)c2)n1 (stereo not given) + CC(Nc1ncnc2nc[nH]c12)c1cc2cccc(Cl)c2c(=O)n1-c1ccccc1 , thanks.
Solution: 113

Problem: Need viability, T/C of CCCS(=O)(=O)Nc1ccc(F)c(C(=O)c2c[nH]c3ncc(-c4ccc(Cl)cc4)cc23)c1F + CC(Nc1ncnc2nc[nH]c12)c1cc2cccc(Cl)c2c(=O)n1-c1ccccc1 , thanks.
Solution: 112

====

System: T-47D spheroids with HUVEC/MSC, viability
EXPERIMENT: Anticancer human tumor T-47D cell line growth inhibition [PI3K];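 note: spheroids exposed to agents for seven days before reading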
EXPERIMENTAL PARAMETERS: curve of first compound; second compound 0.316 µM
REPORTED METRIC: IC50

Problem: Need IC50 of CCCS(=O)(=O)Nc1ccc(F)c(C(=O)c2c[nH]c3ncc(-c4ccc(Cl)cc4)cc23)c1F + CC(Nc1ncnc2nc[nH]c12)c1cc2cccc(Cl)c2c(=O)n1-c1ccccc1 , thanks.
Solution: 8.46 µM

Problem: Need IC50 of CC1(C)CCC(Nc2ncc(C(F)(F)F)c(-c3c[nH]c4c(P(C)(C)=O)c(C#N)ccc34)n2)CN1 (stereo not drawn) + CC(Nc1ccc2c(c1)OCCn1cc(N3C(=O)OCC3C(F)F)nc1-2)C(N)=O , thanks.
Solution: < 0.0316 µM

Problem: Need IC50 of CC(Cn1ccc(-c2ccc(C#N)c(Cl)c2)n1)NC(=O)c1cc(C(C)O)[nH]n1 (stereo not drawn) + COc1c(OCCCN2CCOCC2)ccc2c3n(c(=NC(=O)c4cnc(N)nc4)nc12)CCN3 , thanks.
Solution: < 0.0316 µM
